# reported pIC50; entries follow
Target: eukaryotic ribosome
Assay: Eukaryotic in vitro translation inhibition (TNT T7 Quick Coupled Transcription/Translation System, luciferase)
Conditions: eukaryotic in vitro translation, 30 °C, 60 minutes
// pIC50: -log10(molar conc.)

Give the measured pIC50 of CC(=O)N[C@@H]1CC(N)[C@@H](O[C@H]2OC([C@@H](C)O)[C@@H](O)C(O)C2N)C(O[C@@H]2O[C@H](CN)C(O)C2O)C1O (some centres unmarked) . 4.03

Entry to check: C[C@@H](O)C1O[C@H](O[C@@H]2C(N)C[C@@H](NS(=O)(=O)c3ccccc3)C(O)C2O[C@@H]2O[C@H](CN)C(O)C2O)C(N)C(O)[C@@H]1O (some centres unmarked) 3.79

Entry to check: C[C@@H](O)C1O[C@H](O[C@@H]2C(N)C[C@@H](NC(=O)c3ccccc3)C(O)C2O[C@@H]2O[C@H](CN)C(O)C2O)C(N)C(O)[C@@H]1O (some centres unmarked) 3.12

Entry to check: C[C@@H](O)C1O[C@H](O[C@@H]2C(N)C[C@@H](NS(C)(=O)=O)C(O)C2O[C@@H]2O[C@H](CN)C(O)C2O)C(N)C(O)[C@@H]1O (some centres unmarked) 5.08

Entry to check: C[C@@H](O)C1O[C@H](O[C@@H]2C(N)C[C@@H](N)C(O)[C@H]2O[C@@H]2O[C@H](CN)[C@H](O)C2O)C(N)[C@@H](O)[C@@H]1O (some centres unmarked) [NB74, reference compound] 4.84

----------
Assay: Toxicity assay in cochlear explants (organ of Corti)
Format: cell-based
Settings: CBA/J, mouse, cochlear explants (organ of Corti), outer hair cells, concentration at 50% loss of hair cells; 72 hours incubation; read-out: Ototoxicity (Loss of outer hair cells), LC50^Coch
Field 'label' (enum: true (1) / false (0)). Set to true (1) when CC50 at 72 h is strictly under 200 µM; else false (0).

C[C@@H](O)C1O[C@H](O[C@@H]2C(N)C[C@@H](N)C(O)[C@H]2O[C@@H]2O[C@H](CN)[C@H](O)C2O)C(N)[C@@H](O)[C@@H]1O (stereo partly drawn) [NB74, reference compound]: true (1)
CC(=O)N[C@@H]1CC(N)[C@@H](O[C@H]2OC([C@@H](C)O)[C@@H](O)C(O)C2N)C(O[C@@H]2O[C@H](CN)C(O)C2O)C1O (stereo partly drawn): false (0)
C[C@@H](O)C1O[C@H](O[C@@H]2C(N)C[C@@H](NS(=O)(=O)c3ccccc3)C(O)C2O[C@@H]2O[C@H](CN)C(O)C2O)C(N)C(O)[C@@H]1O (stereo partly drawn): true (1)
CC(=O)N[C@@H]1CC(N)[C@@H](O[C@H]2OC([C@@H](C)O)[C@@H](O)C(O)C2N)C(O[C@@H]2O[C@H]([C@H](C)N)C(O)C2O)C1O (stereo partly drawn): false (0)
C[C@@H](O)C1O[C@H](O[C@@H]2C(N)C[C@@H](NS(C)(=O)=O)C(O)C2O[C@@H]2O[C@H](CN)C(O)C2O)C(N)C(O)[C@@H]1O (stereo partly drawn): true (1)

Moving on to another molecule below.
Strictly below 200 µM: is that where CC50 at 72 h of C[C@H](N)[C@H]1O[C@@H](O[C@@H]2C(O)[C@H](N)CC(N)[C@H]2O[C@H]2OC([C@@H](C)O)[C@@H](O)[C@H](O)C2N)C(O)[C@H]1O (stereo partly drawn) [NB124, reference compound] sits? true (1)
